target: human CGRP receptor (SK-N-MC cells) (Homo sapiens, UniProt O60894+Q16602); construct: SK-N-MC cells that endogenously express the human CGRP receptor; endogenous in cells; host or cells: SK-N-MC cells; assay: Schild analysis of CGRP stimulated cAMP production; format: cell-based; conditions: Schild plot slope
Sequence (Q16602 23-461): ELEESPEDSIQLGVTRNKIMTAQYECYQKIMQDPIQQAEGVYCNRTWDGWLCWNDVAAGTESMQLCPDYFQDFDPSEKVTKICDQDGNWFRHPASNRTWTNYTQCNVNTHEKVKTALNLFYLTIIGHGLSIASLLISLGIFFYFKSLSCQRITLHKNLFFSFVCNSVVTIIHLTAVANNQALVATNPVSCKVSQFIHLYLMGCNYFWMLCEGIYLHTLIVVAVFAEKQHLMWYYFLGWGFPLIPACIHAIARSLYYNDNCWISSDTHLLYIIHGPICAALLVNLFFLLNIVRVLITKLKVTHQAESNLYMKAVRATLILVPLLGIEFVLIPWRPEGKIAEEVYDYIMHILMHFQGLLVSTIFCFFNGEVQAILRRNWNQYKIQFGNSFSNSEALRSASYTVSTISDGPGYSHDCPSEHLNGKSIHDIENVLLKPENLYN
Sequence (O60894 27-148): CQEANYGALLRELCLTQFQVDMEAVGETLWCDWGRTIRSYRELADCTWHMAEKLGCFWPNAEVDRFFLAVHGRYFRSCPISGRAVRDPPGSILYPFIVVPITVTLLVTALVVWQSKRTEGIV
The entries below are paired with their reported slope.
Reply: number alone, nothing else.

Look over these answered cases.
molecule	readoutLabel	readoutNumber
Cc1cc(CC(NC(=O)N2CCC(N3Cc4ccccc4NC3=O)CC2)C(=O)N2CCC(N3CCCCC3)CC2)cc2cn[nH]c12 (racemic) [Example 16]	slope	1.3
O=C(NC(Cc1ccc2[nH]ncc2c1)C(=O)N1CCC(N2CCCCC2)CC1)N1CCC(N2Cc3ccccc3NC2=O)CC1 (racemic) [Example 6]	slope	0.93
O=C(NC(Cc1cc(Cl)c2[nH]ncc2c1)C(=O)N1CCC(N2CCCCC2)CC1)N1CCC(N2Cc3ccccc3NC2=O)CC1 (racemic) [Example 43]	slope	1.2
Cc1cc(CC(CC(=O)N2CCC(N3Cc4ccccc4NC3=O)CC2)C(=O)N2CCC(N3CCCCC3)CC2)cc2cn[nH]c12 (racemic) [Example 69]	slope	1

Reported slope ( CCc1cc(CC(NC(=O)N2CCC(N3Cc4ccccc4NC3=O)CC2)C(=O)N2CCC(N3CCCCC3)CC2)cc2cn[nH]c12 (racemic) [Example 45] ) = 1.4

###

Molecular target: CGRP receptor (SK-N-MC cell membranes) (Homo sapiens, UniProt O60894+Q16602)
Construct: endogenous in cells; host or cells: SK-N-MC cells (membrane homogenate)
Sequence (Q16602 23-461): as the sequence (Q16602 23-461) above
Sequence (O60894 27-148): as the sequence (O60894 27-148) above
Assay: CGRP Binding Assay ([125I]-CGRP radioligand binding, SK-N-MC homogenate)
Conditions: displacement of [125I]-CGRP, SK-N-MC homogenate; read-out: CGRP binding IC50
Experimental: Tissue Culture. SK-N-MC cells were grown at 37° C. in 5% CO2 as a monolayer in medium consisting of MEM with Earle's salts and L-glutamine (Gibco) supplemented with 10% fetal bovine serum (Gibco). Cell Pellets. […] The cells were transferred from plates to polypropylene tubes (16×100 mm) and homogenized using a polytron. Homogenates were centrifuged at 32,000×g for 30 min. […] Radioligand Binding Assay. […] Protein bound radioactivity was determined using a gamma or scintillation counter.
pIC50: −log10 of the molar value.
readoutLabel: pIC50

Use the examples below as a reference point.
molecule	testSystem	pIC50
COc1ccc(OC(=O)N[C@@H](CC(=O)N2CCC(N3Cc4ccccc4NC3=O)CC2)C(=O)N2CCC(N3CCCCC3)CC2)cc1	CGRP receptor (SK-N-MC cell membranes) (Homo sapiens, UniProt O60894+Q16602)	6.00 to 7.00
O=C(NC(Cc1ccc2[nH]ncc2c1)C(=O)N1CCC(N2CCCCC2)CC1)N1CCC(n2c(=O)[nH]c3ccccc32)CC1 (racemic)	CGRP receptor (SK-N-MC cell membranes) (Homo sapiens, UniProt O60894+Q16602)	7.00 to 8.00

Now take the following molecule into account.
// field: pIC50; key: Cc1cc(CC(CC(=O)N2CCC(N3Cc4ccccc4NC3=O)CC2)C(=O)N2CCCCC2)cc2cn[nH]c12 (racemic) ; value = > 8.00

###

target: human CGRP receptor (SK-N-MC cells) (Homo sapiens, UniProt O60894+Q16602); construct: SK-N-MC cells that endogenously express the human CGRP receptor; endogenous in cells; host or cells: SK-N-MC cells; assay: Cyclic AMP Assay, functional antagonism of CGRP-induced cyclic AMP formation; type: cell-based; details: SK-N-MC cells, 0.3 nM CGRP; read-out: cAMP Function IC50
readoutLabel: IC50

molecule	result
O=C1Nc2ccccc2C2(CCN(C(=O)C[C@H](Cc3csc4ccccc34)C(=O)N3CCC(N4CCCCC4)CC3)CC2)O1 [Example 65]	10 to 100 nM
O=C1NCC2(CCN(C(=O)N[C@H](Cc3csc4ccccc34)C(=O)N3CCC(N4CCCCC4)CC3)CC2)c2ccccc21 [Example 63]	100 to 1000 nM
O=C(NC(Cc1ccc2[nH]ncc2c1)C(=O)N1CCC(N2CCCCC2)CC1)N1CCC(n2c(=O)[nH]c3ccccc32)CC1 (racemic) [Example 4]	10 to 100 nM
CC(C)(C)OC(=O)n1ncc2cc(CC(CC(=O)N3CCC(N4Cc5ccccc5NC4=O)CC3)C(=O)N3CCC(N4CCCCC4)CC3)ccc21 (racemic) [Example 83]	100 to 1000 nM

Let me check: CN(C)C(=O)C(CC(=O)N1CCC(N2Cc3ccccc3NC2=O)CC1)Cc1ccc2[nH]ncc2c1 (racemic) [Example 82] , system human CGRP receptor (SK-N-MC cells) (Homo sapiens, UniProt O60894+Q16602), measured IC50 is 100 to 1000 nM

The recorded IC50 with human CGRP receptor (SK-N-MC cells) (Homo sapiens, UniProt O60894+Q16602) for Cc1cc(CC(CC(=O)N2CCC3(CC2)OC(=O)Nc2ccccc23)C(=O)N(C)C)cc2cn[nH]c12 (racemic) [Example 76] was 10 to 100 nM

###

Below, each of the molecules is paired with its reported IC50 value.
target: human CGRP receptor (SK-N-MC cells) (Homo sapiens, UniProt O60894+Q16602); construct: SK-N-MC cells that endogenously express the human CGRP receptor; endogenous in cells; host or cells: SK-N-MC cells; test: Cyclic AMP Assay, functional antagonism of CGRP-induced cyclic AMP formation; format: cell-based; details: SK-N-MC cells, 0.3 nM CGRP; read-out: cAMP Function IC50

molecule	IC50
Cc1cc(CC(NC(=O)N2CCC3(CC2)NC(=O)Nc2ccccc23)C(=O)N2CCC(N3CCCCC3)CC2)cc2cn[nH]c12 (racemic)	< 10 nM
Cc1cc(CC(CC(=O)N2CCC(N3Cc4ccccc4NC3=O)CC2)C(=O)N2CCC(N3CCCCC3)CC2)cc2cn[nH]c12 (racemic)	< 10 nM

Consider now this further molecule.
Form field IC50, entry O=C(C[C@H](Nc1nc(Cl)nc2[nH]cnc12)C(=O)N1CCC(N2CCCCC2)CC1)N1CCC(N2Cc3ccccc3NC2=O)CC1 : 10 to 100 nM

###

Items are presented alongside their recorded IC50.
target: CGRP receptor (SK-N-MC cell membranes) (Homo sapiens, UniProt O60894+Q16602); construct: endogenous in cells; host or cells: SK-N-MC cells (membrane homogenate); assay: CGRP Binding Assay ([125I]-CGRP radioligand binding, SK-N-MC homogenate); settings: displacement of [125I]-CGRP, SK-N-MC homogenate; read-out: CGRP binding IC50

Reference set (10 entries):
compound	testSystem	IC50
O=C(N[C@@H](CC(=O)N1CCC(N2Cc3ccccc3NC2=O)CC1)C(=O)N1CCC(N2CCCCC2)CC1)c1cc2ccccc2s1	CGRP receptor (SK-N-MC cell membranes) (Homo sapiens, UniProt O60894+Q16602)	0.1 to 1 µM
Cc1cc(CC(NC(=O)N2CCC3(CC2)NC(=O)Nc2ccccc23)C(=O)N2CCCCC2)cc2cn[nH]c12 (racemic)	CGRP receptor (SK-N-MC cell membranes) (Homo sapiens, UniProt O60894+Q16602)	0.01 to 0.1 µM
O=C(C[C@H](Nc1ccc2[nH]ncc2c1)C(=O)N1CCC(N2CCCCC2)CC1)N1CCC(N2Cc3ccccc3NC2=O)CC1 (racemic)	CGRP receptor (SK-N-MC cell membranes) (Homo sapiens, UniProt O60894+Q16602)	0.1 to 1 µM
O=C(Nc1ccccc1Oc1ccccc1)N[C@@H](CC(=O)N1CCC(N2Cc3ccccc3NC2=O)CC1)C(=O)N1CCC(N2CCCCC2)CC1	CGRP receptor (SK-N-MC cell membranes) (Homo sapiens, UniProt O60894+Q16602)	0.1 to 1 µM
O=C(Nc1ccc(F)cc1F)N[C@@H](CC(=O)N1CCC(N2Cc3ccccc3NC2=O)CC1)C(=O)N1CCC(N2CCCCC2)CC1	CGRP receptor (SK-N-MC cell membranes) (Homo sapiens, UniProt O60894+Q16602)	0.1 to 1 µM
Cc1cc(CC(NC(=O)N2CCC3(CC2)OC(=O)Nc2ccccc23)C(=O)NCc2ccncc2)cc2cn[nH]c12 (racemic)	CGRP receptor (SK-N-MC cell membranes) (Homo sapiens, UniProt O60894+Q16602)	0.01 to 0.1 µM
Cc1cc(Cl)ccc1NC(=O)N[C@@H](CC(=O)N1CCC(N2Cc3ccccc3NC2=O)CC1)C(=O)N1CCC(N2CCCCC2)CC1	CGRP receptor (SK-N-MC cell membranes) (Homo sapiens, UniProt O60894+Q16602)	0.1 to 1 µM
CC(C)c1ccc(NC(=O)N[C@@H](CC(=O)N2CCC(N3Cc4ccccc4NC3=O)CC2)C(=O)N2CCC(N3CCCCC3)CC2)cc1	CGRP receptor (SK-N-MC cell membranes) (Homo sapiens, UniProt O60894+Q16602)	0.1 to 1 µM
O=C(Nc1ccc(Cl)c(C(F)(F)F)c1)N[C@@H](CC(=O)N1CCC(N2Cc3ccccc3NC2=O)CC1)C(=O)N1CCC(N2CCCCC2)CC1	CGRP receptor (SK-N-MC cell membranes) (Homo sapiens, UniProt O60894+Q16602)	0.1 to 1 µM
Cc1cc(CC(NC(=O)N2CCC(N3Cc4ccccc4NC3=O)CC2)C(=O)N2CCN(C)CC2)cc2cn[nH]c12 (racemic)	CGRP receptor (SK-N-MC cell membranes) (Homo sapiens, UniProt O60894+Q16602)	< 0.01 µM

Record O=C(N[C@H](Cc1csc2ccccc12)C(=O)N1CCC(N2CCCCC2)CC1)N1CCC2(CC1)Cc1ccccc1NC2=O . Reported IC50: 0.1 to 1 µM

# IC50 of Cc1cc(CC(CC(=O)N2CCC3(CC2)OC(=O)Nc2ccccc23)C(=O)N2CCCCC2)cc2cn[nH]c12 (racemic) = 0.01 to 0.1 µM

Looking up O=C(Nc1ccc2ccccc2c1)N[C@@H](CC(=O)N1CCC(N2Cc3ccccc3NC2=O)CC1)C(=O)N1CCC(N2CCCCC2)CC1 , I see its IC50 listed as 0.1 to 1 µM

// IC50 value for O=C(Nc1cc(Cl)ccc1Cl)N[C@@H](CC(=O)N1CCC(N2Cc3ccccc3NC2=O)CC1)C(=O)N1CCC(N2CCCCC2)CC1 : 0.1 to 1 µM

Consider O=C(N[C@@H](CC(=O)N1CCC(N2Cc3ccccc3NC2=O)CC1)C(=O)N1CCC(N2CCCCC2)CC1)Oc1ccccc1 . Its measured IC50 is 0.1 to 1 µM

Reported IC50 ( Cc1cc(CC(NC(=O)N2CCC(N3Cc4ccccc4NC3=O)CC2)C(=O)O[C@@H](C)c2ccncc2)cc2cn[nH]c12 (stereo partly shown) [Example 41f] ) = 0.01 to 0.1 µM

For this compound ( O=C(C[C@H](Nc1ccc2[nH]ccc2c1)C(=O)N1CCC(N2CCCCC2)CC1)N1CCC(N2Cc3ccccc3NC2=O)CC1 ), measured IC50 is 0.1 to 1 µM

// sample O=C(NC(Cc1cc(Cl)c2[nH]ncc2c1)C(=O)N1CCC(N2CCCCC2)CC1)N1CCC(N2Cc3ccccc3NC2=O)CC1 (racemic) , its IC50 was < 0.01 µM
